PROTOCOL_SUMMARY: Single and repeat dose plasma and tissue pharmacokinetics in male C57BL/6 mice
Type: in vivo, mouse
EXPERIMENTAL_PARAMETERS: male, C57BL/6, mouse, liver, po, 20 mg/kg, mouse liver; QD × 1; value in parentheses: timepoint 0.25 h samples after reanalysis
MEASURED_QUANTITY: Tmax (min)

* CC(C)(CCCCc1ccc(CCCCC(C)(C)C(=O)O)cc1)C(=O)O [Compound I-1] | 15

----------
PROTOCOL_SUMMARY: Single and repeat dose plasma and tissue pharmacokinetics in male C57BL/6 mice
Format: in vivo, mouse
EXPERIMENTAL_PARAMETERS: male, C57BL/6, mouse, liver, po, 20 mg/kg/day, mouse liver; 20 mg/kg/day PO; 4 consecutive days (QD × 4)
Procedure: Materials and methods. The study involved two arms: a single dose pharmacokinetic study and a 4-day repeated-dose pharmacokinetic study. For each arm, 56 inbred male C57BL/6 mice, aged at 6-7 week, were included. All animals were purchased from Charles River Lab (CRL, MA). […] All three samples from each mouse were analyzed for either Compound I-1 or Compound I-32 contents by Integrated Analytical Solutions (Berkeley, CA) and the results were used for the generation of the pharmacokinetic graphs. […]
MEASURED_QUANTITY: Cmax (ng/g)

• CC(C)(CCCCc1ccc(CCCCC(C)(C)C(=O)O)cc1)C(=O)O = 30900
• CC(C)(CCCCc1cccc(CCCCC(C)(C)C(=O)O)c1)C(=O)O = 43000
